In this section, each of the variants is paired with its reported self-cleavage.
B1: CPEB3 Ribozyme (parent)
chain: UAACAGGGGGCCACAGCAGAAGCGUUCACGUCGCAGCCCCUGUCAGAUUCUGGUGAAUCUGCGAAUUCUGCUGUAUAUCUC

# Variants of: B1
# experiment: self-cleavage, relative activity (ratio to wild type); higher = more cleavage; in vitro, sequencing
Respond with the number and no other words.

mutation_id="G46A G53A" experimental_result=0.45
mutation_id="U58C U66C" experimental_result=0.28
mutation_id="U49A A64G" experimental_result=0.51
mutation_id="C37A A57G" experimental_result=0.2
mutation_id="U26C C37G" experimental_result=0.71

Given the entry U49C G63U , report its measured self-cleavage. 0.35

// returns reported self-cleavage for input C40U U76C 0.92

I would be grateful if you could share the reported self-cleavage for G46A A65U . 0.43

May I ask what self-cleavage has been recorded for U54G C62U ? 0.19

Return reported self-cleavage; argument: A5G A20G 0.54
